biological target: PI3kγ (Homo sapiens, UniProt P48736); test: Fluorescent (HTRF) determination of PI3 kinase enzyme activity, PI3Kγ; type: biochemical; details: 100 nM (Examples 60-137)
Sequence (P48736 whole entry): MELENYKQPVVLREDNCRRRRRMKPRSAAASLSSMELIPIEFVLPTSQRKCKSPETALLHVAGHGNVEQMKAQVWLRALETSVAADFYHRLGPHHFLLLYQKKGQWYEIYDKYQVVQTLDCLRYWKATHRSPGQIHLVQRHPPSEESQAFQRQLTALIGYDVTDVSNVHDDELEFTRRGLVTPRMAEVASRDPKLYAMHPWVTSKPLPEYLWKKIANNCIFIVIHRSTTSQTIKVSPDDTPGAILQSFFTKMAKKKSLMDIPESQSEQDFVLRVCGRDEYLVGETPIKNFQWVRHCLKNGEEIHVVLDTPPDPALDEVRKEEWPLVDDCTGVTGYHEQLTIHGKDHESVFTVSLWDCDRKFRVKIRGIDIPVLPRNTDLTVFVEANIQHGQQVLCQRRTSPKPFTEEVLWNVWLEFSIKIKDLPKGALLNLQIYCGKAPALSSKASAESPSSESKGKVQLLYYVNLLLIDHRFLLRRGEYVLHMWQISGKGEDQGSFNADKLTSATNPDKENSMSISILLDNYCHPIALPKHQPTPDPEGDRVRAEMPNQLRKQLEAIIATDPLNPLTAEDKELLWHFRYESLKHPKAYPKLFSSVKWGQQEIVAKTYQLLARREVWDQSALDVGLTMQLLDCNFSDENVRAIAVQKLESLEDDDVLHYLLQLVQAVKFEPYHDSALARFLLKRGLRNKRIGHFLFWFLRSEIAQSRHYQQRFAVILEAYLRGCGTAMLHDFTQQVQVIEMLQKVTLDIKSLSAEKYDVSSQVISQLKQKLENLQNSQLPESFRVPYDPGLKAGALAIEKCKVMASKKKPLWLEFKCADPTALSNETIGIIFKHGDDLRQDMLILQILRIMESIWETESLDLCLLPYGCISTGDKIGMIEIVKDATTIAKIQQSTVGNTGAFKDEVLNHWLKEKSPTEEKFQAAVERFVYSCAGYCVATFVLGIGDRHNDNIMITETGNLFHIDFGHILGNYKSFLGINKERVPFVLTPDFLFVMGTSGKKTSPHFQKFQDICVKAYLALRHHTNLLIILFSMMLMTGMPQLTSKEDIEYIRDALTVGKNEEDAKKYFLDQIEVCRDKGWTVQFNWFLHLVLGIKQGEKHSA
# inhibition at 0.1 µM per entry
measured-property: inhibition at 0.1 µM

1. Cc1nc(C)c(-c2nn(C(C)c3oc4cccc(F)c4c(=O)c3-c3cccc(F)c3)c3ncnc(N)c23)s1 (centres unmarked) : 0 to 25%
2. Cc1nc2ccc(-c3nn(C(C)c4oc5cccc(F)c5c(=O)c4-c4cccc(F)c4)c4ncnc(N)c34)cc2o1 (centres unmarked) : 25 to 50%
3. COc1c(C)cc(-c2nn(C(C)c3oc4cccc(F)c4c(=O)c3-c3cccc(F)c3)c3ncnc(N)c23)cc1C (centres unmarked) : 25 to 50%
4. CC(c1oc2cccc(F)c2c(=O)c1-c1cccc(F)c1)n1nc(-c2cnc3[nH]ccc3c2)c2c(N)ncnc21 (centres unmarked) : 25 to 50%
5. CC(c1oc2cccc(F)c2c(=O)c1-c1cccc(F)c1)n1nc(-c2ccc3c(c2)CNC3=O)c2c(N)ncnc21 (centres unmarked) : 0 to 25%
6. CC(c1oc2cccc(F)c2c(=O)c1-c1ccccc1)n1nc(-c2ccc(N3CCOCC3)c(F)c2)c2c(N)ncnc21 (centres unmarked) : 0 to 25%
7. CC(c1oc2cccc(F)c2c(=O)c1-c1cccc(F)c1)n1nc(-c2ccc(CN3CCOCC3)s2)c2c(N)ncnc21 (centres unmarked) : 25 to 50%
8. CNc1ncnc2c1c(-c1ccc(OC(C)C)c(F)c1)nn2C(C)c1oc2cccc(F)c2c(=O)c1-c1cccc(F)c1 (single isomer, unassigned; (+)) : 25 to 50%
9. CC(c1oc2cccc(F)c2c(=O)c1-c1ccc(F)cc1)n1nc(-c2ccc(OC(F)F)c(F)c2)c2c(N)ncnc21 (single isomer, unassigned) [Example 97] : 25 to 50%
10. CC(c1oc2cccc(F)c2c(=O)c1-c1cccc(F)c1)n1cnc2c(N)nc(F)nc21 (centres unmarked) : 25 to 50%
11. Cc1c2ccc(-c3nn(C(C)c4oc5cccc(F)c5c(=O)c4-c4cccc(F)c4)c4ncnc(N)c34)cc2nn1C (centres unmarked) : 25 to 50%
12. CC(c1oc2cccc(F)c2c(=O)c1-c1cccc(F)c1)n1nc(-c2cccc(NS(C)(=O)=O)c2)c2c(N)ncnc21 (centres unmarked) : 25 to 50%
13. CCC(Nc1ncnc2[nH]cnc12)c1oc2cccc(F)c2c(=O)c1-c1ccccc1 (centres unmarked) : 50 to 75%
14. Cc1nn(C)c2cc(-c3nn(C(C)c4oc5cccc(F)c5c(=O)c4-c4cccc(F)c4)c4ncnc(N)c34)ccc12 (centres unmarked) : 25 to 50%
15. Cc1cccc2oc([C@H](C)n3nc(-c4ccc(OC(C)C)c(F)c4)c4c(N)ncnc43)c(-c3ccccc3)c(=O)c12 (single isomer, unassigned) : 0 to 25%
16. CC(c1oc2cccc(F)c2c(=O)c1-c1cccc(F)c1)n1nc(-c2ccc3nccn3c2)c2c(N)ncnc21 (centres unmarked) : 25 to 50%
17. CC(c1oc2cccc(F)c2c(=O)c1-c1ccccc1)n1nc(-c2ccc(OC(F)F)c(F)c2)c2c(N)ncnc21 (single isomer, unassigned) [Example 103] : 25 to 50%
18. CC(c1oc2cccc(F)c2c(=O)c1-c1cccc(F)c1)n1nc(-c2ccc(CNC(=O)OC(C)(C)C)o2)c2c(N)ncnc21 (centres unmarked) : 25 to 50%
19. CC(c1oc2cccc(F)c2c(=O)c1-c1cccc(F)c1)n1nc(-c2ccc(-c3nnc(N)s3)cc2)c2c(N)ncnc21 (centres unmarked) : 25 to 50%
20. CC(Nc1ncnc2[nH]cnc12)c1oc2cccc(F)c2c(=O)c1-c1ccccc1F (centres unmarked) : 25 to 50%
21. COc1nc(N[C@@H](C)c2oc3cccc(F)c3c(=O)c2-c2cccc(F)c2)c2nc[nH]c2n1 (single isomer, unassigned) : 0 to 25%
22. COC(=O)c1cc(-c2nn(C(C)c3oc4cccc(F)c4c(=O)c3-c3cccc(F)c3)c3ncnc(N)c23)cs1 (centres unmarked) : 50 to 75%
23. CCOc1ccc(-c2nn(C(C)c3oc4cccc(F)c4c(=O)c3-c3cccc(F)c3)c3ncnc(N)c23)cc1C(F)(F)F (centres unmarked) : 25 to 50%
24. CC(c1oc2cccc(F)c2c(=O)c1-c1cccc(F)c1)n1nc(-c2ccc(S(N)(=O)=O)cc2)c2c(N)ncnc21 (centres unmarked) : 25 to 50%
25. CC(C)Oc1ccc(-c2nn(C(C)c3oc4cccc(F)c4c(=O)c3-c3ccc(F)cc3)c3ncnc(N)c23)cc1F (racemic) [Example 94] : 25 to 50%
26. Cc1n[nH]c2cc(-c3nn(C(C)c4oc5cccc(F)c5c(=O)c4-c4cccc(F)c4)c4ncnc(N5CCOCC5)c34)ccc12 (centres unmarked) : 50 to 75%
